Entries and their Ki
Target: JAK1 (Homo sapiens (Human), UniProt P23458)
Sequence (P23458 whole entry): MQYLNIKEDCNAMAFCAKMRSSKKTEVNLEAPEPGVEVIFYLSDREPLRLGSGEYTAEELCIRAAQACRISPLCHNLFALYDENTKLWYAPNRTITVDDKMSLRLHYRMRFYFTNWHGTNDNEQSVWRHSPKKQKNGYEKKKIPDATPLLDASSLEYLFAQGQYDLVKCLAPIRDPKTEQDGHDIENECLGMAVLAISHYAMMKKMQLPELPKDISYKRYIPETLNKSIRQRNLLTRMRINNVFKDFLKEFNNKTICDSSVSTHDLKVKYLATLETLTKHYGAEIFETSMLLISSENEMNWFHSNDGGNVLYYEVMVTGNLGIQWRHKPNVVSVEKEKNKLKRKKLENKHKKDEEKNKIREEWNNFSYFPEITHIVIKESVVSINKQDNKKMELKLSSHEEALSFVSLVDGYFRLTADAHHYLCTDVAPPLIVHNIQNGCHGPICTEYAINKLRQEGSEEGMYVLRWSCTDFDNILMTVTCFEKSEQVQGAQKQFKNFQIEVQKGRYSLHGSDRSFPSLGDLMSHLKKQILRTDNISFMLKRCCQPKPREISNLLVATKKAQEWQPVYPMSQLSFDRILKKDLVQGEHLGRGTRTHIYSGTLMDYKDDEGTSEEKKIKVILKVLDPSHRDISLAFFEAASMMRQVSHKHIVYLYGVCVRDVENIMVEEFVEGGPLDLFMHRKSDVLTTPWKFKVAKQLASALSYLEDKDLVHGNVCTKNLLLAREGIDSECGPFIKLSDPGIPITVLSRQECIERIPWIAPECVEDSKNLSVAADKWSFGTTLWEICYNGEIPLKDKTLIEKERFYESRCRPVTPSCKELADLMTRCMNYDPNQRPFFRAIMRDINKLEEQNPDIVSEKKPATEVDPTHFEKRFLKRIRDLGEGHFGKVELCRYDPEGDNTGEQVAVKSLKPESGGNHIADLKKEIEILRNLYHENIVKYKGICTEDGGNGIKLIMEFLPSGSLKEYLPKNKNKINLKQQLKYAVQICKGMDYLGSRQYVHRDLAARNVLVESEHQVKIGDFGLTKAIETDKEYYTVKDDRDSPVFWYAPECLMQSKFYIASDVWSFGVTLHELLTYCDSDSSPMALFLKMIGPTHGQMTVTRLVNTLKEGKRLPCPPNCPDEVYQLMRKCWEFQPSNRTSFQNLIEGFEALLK
Experiment: Biochemical JAK kinase assay (LanthaScreen), JAK1
Details: read-out: JAK1 pKi (converted)
measured_attribute: Ki

{"columns": ["compound", "measured_attribute", "value_measured"],
 "data": [
  ["CCc1cc(O)ccc1-c1ccc2c(-c3nc(C4=CCN(CCN(C)C)C4)c[nH]3)n[nH]c2c1F [Example 220]", "Ki", "0.1 to 1 nM"],
  ["CCc1cc(O)ccc1-c1ccc2c(-c3nc(C4=CCCN(C(=O)OC)C4)c[nH]3)n[nH]c2c1 [Example 161]", "Ki", "0.1 to 1 nM"],
  ["CCc1cc(O)ccc1-c1ccc2c(-c3nc(C4=C[C@H](CC(=O)OC(C)C)NC4)c[nH]3)n[nH]c2c1F [Example 309]", "Ki", "0.1 to 1 nM"],
  ["CCc1cc(O)ccc1-c1ccc2c(-c3nc(C4=CCN(C[C@@H]5COCCN5C)CC4)c[nH]3)n[nH]c2c1F [Example 210]", "Ki", "0.1 to 1 nM"],
  ["CCc1cc(O)ccc1-c1ccc2c(-c3nc(C4=CCN(C(=O)OC)CC4)c[nH]3)n[nH]c2c1 [Example 149]", "Ki", "1 to 10 nM"],
  ["CCc1cc(O)ccc1-c1ccc2c(-c3nc(C4=CCN(S(=O)(=O)C5CNC5)C4)c[nH]3)n[nH]c2c1F [Example 180]", "Ki", "1 to 10 nM"],
  ["CCc1cc(O)ccc1-c1ccc2c(-c3nc(C4=CCCN(C5CCNC5)C4)c[nH]3)n[nH]c2c1F (stereo not shown) [Example 214]", "Ki", "0.1 to 1 nM"]
]}

====

Molecular target: TYK2 (Homo sapiens (Human), UniProt P29597)
Sequence (P29597 whole entry): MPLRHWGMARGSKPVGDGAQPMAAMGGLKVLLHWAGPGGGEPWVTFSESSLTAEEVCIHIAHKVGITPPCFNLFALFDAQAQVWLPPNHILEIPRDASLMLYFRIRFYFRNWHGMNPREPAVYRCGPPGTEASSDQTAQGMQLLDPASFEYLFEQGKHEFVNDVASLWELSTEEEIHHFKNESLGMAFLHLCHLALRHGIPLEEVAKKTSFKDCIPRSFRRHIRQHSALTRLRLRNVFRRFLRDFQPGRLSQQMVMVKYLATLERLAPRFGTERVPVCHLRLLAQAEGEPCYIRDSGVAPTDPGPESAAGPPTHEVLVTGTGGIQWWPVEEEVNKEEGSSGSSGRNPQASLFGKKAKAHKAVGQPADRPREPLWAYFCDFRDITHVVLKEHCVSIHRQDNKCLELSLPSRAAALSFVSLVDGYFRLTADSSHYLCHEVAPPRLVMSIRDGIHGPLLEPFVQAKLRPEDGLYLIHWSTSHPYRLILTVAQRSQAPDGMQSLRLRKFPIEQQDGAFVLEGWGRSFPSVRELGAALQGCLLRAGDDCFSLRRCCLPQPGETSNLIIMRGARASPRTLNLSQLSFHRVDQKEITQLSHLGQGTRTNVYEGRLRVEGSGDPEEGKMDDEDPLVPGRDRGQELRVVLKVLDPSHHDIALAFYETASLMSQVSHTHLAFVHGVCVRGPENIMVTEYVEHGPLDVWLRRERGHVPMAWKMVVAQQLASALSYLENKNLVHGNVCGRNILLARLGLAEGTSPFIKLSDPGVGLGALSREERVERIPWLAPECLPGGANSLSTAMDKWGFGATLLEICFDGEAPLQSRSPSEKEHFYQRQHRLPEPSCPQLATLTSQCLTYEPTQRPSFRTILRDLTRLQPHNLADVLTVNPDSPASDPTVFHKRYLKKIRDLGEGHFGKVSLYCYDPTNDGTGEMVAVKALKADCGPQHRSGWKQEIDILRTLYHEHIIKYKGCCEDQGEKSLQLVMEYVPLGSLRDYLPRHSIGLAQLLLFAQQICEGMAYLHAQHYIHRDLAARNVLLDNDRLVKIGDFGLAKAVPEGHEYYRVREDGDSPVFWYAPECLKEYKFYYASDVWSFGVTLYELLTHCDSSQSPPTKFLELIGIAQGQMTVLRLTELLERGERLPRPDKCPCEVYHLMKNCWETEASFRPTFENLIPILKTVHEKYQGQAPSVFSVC
Test: Biochemical JAK kinase assay (LanthaScreen), Tyk2
Conditions: read-out: Tyk2 pKi (converted)
Entries and their Ki

{"columns": ["compound", "Ki"],
 "data": [
  ["CCc1cc(O)ccc1-c1ccc2c(-c3nc(C4=CC[C@H](C)NC4)c[nH]3)n[nH]c2c1F", "1 to 10 nM"],
  ["CCc1cc(O)c(F)cc1-c1ccc2c(-c3nc(C4=CCNC4)c[nH]3)n[nH]c2c1F", "1 to 10 nM"],
  ["CCc1cc(O)ccc1-c1ccc2c(-c3nc(C4=CCCN(CCN5CCOCC5)C4)c[nH]3)n[nH]c2c1F", "1 to 10 nM"],
  ["CCc1cc(O)ccc1-c1ccc2c(-c3nc(C4=CCN(C5CCN(C)CC5)CC4)c[nH]3)n[nH]c2c1", "1 to 10 nM"],
  ["CCc1cc(O)ccc1-c1ccc2c(-c3nc(C4=CC(C)(C)NC(C)(C)C4)c[nH]3)n[nH]c2c1", "1 to 10 nM"],
  ["CCc1cc(O)ccc1-c1ccc2c(-c3nc(C4=C(C)CNC4)c[nH]3)n[nH]c2c1F", "0.1 to 1 nM"],
  ["CCc1cc(O)ccc1-c1ccc2c(-c3nc(C4=CCCN(C5CCCNC5)C4)c[nH]3)n[nH]c2c1F (stereo not drawn)", "1 to 10 nM"],
  ["CCc1cc(O)ccc1-c1ccc2c(-c3nc(C4=CCN(C5CCN(C)C5)C4)c[nH]3)n[nH]c2c1F (stereo not drawn)", "0.1 to 1 nM"],
  ["CCc1cc(O)ccc1-c1ccc2c(-c3nc(C4=CCCN(C[C@@H]5COCCN5)C4)c[nH]3)n[nH]c2c1", "1 to 10 nM"],
  ["CCc1cc(O)ccc1-c1ccc2c(-c3nc(C4=CCN(C[C@@H]5COCCN5C)C4)c[nH]3)n[nH]c2c1F", "0.1 to 1 nM"],
  ["CCc1cc(O)ccc1-c1ccc2c(-c3nc(C4=CCCN(C5CCCCC5)C4)c[nH]3)n[nH]c2c1F", "1 to 10 nM"],
  ["CCc1cc(O)ccc1-c1ccc2c(-c3nc(C4=CCCN(C)C4)c[nH]3)n[nH]c2c1F", "1 to 10 nM"],
  ["CCc1cc(O)ccc1-c1ccc2c(-c3nc(C4=CCN(C[C@@H]5CCN5)CC4)c[nH]3)n[nH]c2c1F", "1 to 10 nM"],
  ["CCc1cc(O)ccc1-c1ccc2c(-c3nc(C4=CCN(C(=O)[C@@H](N)Cc5ccccc5)CC4)c[nH]3)n[nH]c2c1F", "10 to 100 nM"],
  ["CCc1cc(O)ccc1-c1ccc2c(-c3nc(C4=CCN(C5CCN(C)CC5)C4)c[nH]3)n[nH]c2c1F", "1 to 10 nM"]
]}

The origin of these recorded values is patent US20240092758A1.
